# Test system: Salmonella typhimurium
# EXPERIMENT DESCRIPTION: Mutagenicity in Salmonella typhimurium TA100 assessed as increase in number of revertants in presence of rat liver S9 fraction by Ames test relative to control
# Format: toxicity, organism-based
# CONDITION INFO: salmonella enterica subsp. enterica serovar typhimurium
Entries annotated with measured fold change (FC)
Give the figure by itself; no unit, no explanation.

# fold change (FC) of `N#Cc1cc(Cn2ccc(N)n2)ccc1F` = 1.5

# fold change (FC) of `N#Cc1nc(Cn2ccc(N)n2)ccc1F` = 1.4

# fold change (FC) of `Nc1cnn(Cc2ccc(F)c(F)c2)n1` = 3.3

# fold change (FC) of `Nc1ncn(Cc2ccc(F)c(F)c2)n1` = 1.1

# fold change (FC) of `Nc1ccn(Cc2ccc(F)cc2)n1` = 10.2

# fold change (FC) of Nc1ccn(CC2CCC(F)(F)CO2)n1 (stereo in doubt; 14a) = 1.3

# fold change (FC) of `Nc1ccn(Cc2ccc(F)c(F)c2)n1` = 1.2

# fold change (FC) of `N#Cc1cn(Cc2ccc(F)c(F)c2)nc1N` = 1.1

# fold change (FC) of `N#Cc1ccc(Cn2ccc(N)n2)cc1F` = 2.2

# fold change (FC) of `COc1ccc(Cn2ccc(N)n2)cc1` = 20.8

# fold change (FC) of `Nc1nc(Cc2ccc(F)c(F)c2)cs1` = 1.1

# fold change (FC) of Nc1ccn(CC2CCC(F)(F)CO2)n1 (stereo in doubt; 14b) = 2.5

# fold change (FC) of `N#Cc1ccc(Cn2ccc(N)n2)nc1` = 1.3

# fold change (FC) of `Cc1ccc(Cn2ccc(N)n2)cc1` = 19.8

# fold change (FC) of `Nc1ccn(Cc2ccccc2)n1` = 30.3

# fold change (FC) of `N#Cc1ccc(Cn2ccc(N)n2)cc1` = 1.1

Sourced from ChEMBL document CHEMBL4177680
